- subject of test: KRas G12R (Homo sapiens, UniProt P01116, G12R)
- Sequence (P01116 1-169 isoform P01116-2 G12R): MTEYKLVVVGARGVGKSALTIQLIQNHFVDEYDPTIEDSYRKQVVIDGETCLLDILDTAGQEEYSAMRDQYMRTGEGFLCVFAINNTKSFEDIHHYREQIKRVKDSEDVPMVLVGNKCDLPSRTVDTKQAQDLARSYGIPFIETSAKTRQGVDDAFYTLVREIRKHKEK
- measurement protocol: biochemical
pIC50: −log10 of the molar value.
metric name: pIC50

C#Cc1c(F)ccc2cccc(-c3ncc4c(N5CCC[C@@](C)(O)C5)nc(OC[C@@]56CCCN5C[C@H](F)C6)nc4c3F)c12: 7.16

(A) O[C@@H]1C[C@H](O)CN(c2nc(OCC34CCCN3CCC4)nc3c(F)c(-c4cccc5cccc(F)c45)ncc23)C1
(B) O=C1CC2(CCCN(c3nc(OCC45CCCN4CCC5)nc4c(F)c(-c5cccc6cccc(CO)c56)ncc34)C2)N1 (stereo not shown)
(C) CCc1cccc2cccc(-c3ncc4c(N5CC6C(=O)NC(=O)C6C5)nc(OCC56CCCN5CCC6)nc4c3F)c12 (stereo not shown)
(D) CCc1c(F)ccc2cc(O)cc(-c3ncc4c(N5CCCC6(CCC(F)(F)C6)C5)nc(OC[C@@]56CCCN5C[C@H](F)C6)nc4c3F)c12 (stereo partly shown)
(E) OCC1COCCN(c2nc(OCC34CCCN3CCC4)nc3c(F)c(-c4cccc5cccc(F)c45)ncc23)C1 (stereo not shown)
Q: Please produce an ascending ranking of these compounds based on pIC50. Reply: labels, ordered per the request.
A: B, A, E, C, D
(B: 4.81, A: 5.59, E: 6.00, C: 6.74, D: 7.92)

----------
- Tested on: phospho-ERK in MKN1 (WTdep) cells
- measurement protocol: Inhibition of KRas-mediated phosphorylation of ERK (in-cell western)
- Format: cell-based
- experimental parameters: Homo sapiens, MKN-1, 3 hours compound, phospho-ERK normalized to GAPDH
Each entry below carries its reported IC50.
Express it in nM; write the number only.

CCc1c(F)ccc2cc(O)cc(-c3ncc4c(N5CCCC6(CNC(=O)C6)C5)nc(OC[C@@]56CCCN5C[C@H](F)C6)nc4c3F)c12 (stereo partly drawn) [Example 38]: 143

Q: Looking for the measured IC50 of CCc1c(F)ccc2cc(O)cc(-c3ncc4c(NCc5c[nH]c6ncccc56)nc(OC[C@@]56CCCN5C[C@H](F)C6)nc4c3F)c12 [62.] , can you help?
A: 7

Q: GET /values?readout=IC50&item= CCc1c(F)ccc2cc(O)cc(-c3ncc4c(N5CCC[C@@](C)(O)C5)nc(OCC5(CN6CCCC6)CC5)nc4c3F)c12 [Example 202]
A: 3

----------
- subject of test: KRas G12V (Homo sapiens, UniProt P01116, G12V)
- Sequence (P01116 1-169 isoform P01116-2 G12V): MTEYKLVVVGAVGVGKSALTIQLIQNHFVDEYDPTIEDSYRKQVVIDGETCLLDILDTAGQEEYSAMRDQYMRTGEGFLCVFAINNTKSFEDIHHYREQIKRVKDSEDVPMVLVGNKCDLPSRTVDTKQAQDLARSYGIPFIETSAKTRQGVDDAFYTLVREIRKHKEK
- measurement protocol: biochemical
metric name: IC50 (nM)

(A) Cc1cc2[nH]ncc2c(-c2ncc3c(N4CCCC(C)(O)C4)nc(OCC45CCCN4CCC5)nc3c2F)c1C (stereo not drawn)
(B) CCc1c(F)ccc2cc(O)cc(-c3ncc4c(N(C)CC5CC(=O)N5)nc(OC[C@@]56CCCN5C[C@H](F)C6)nc4c3F)c12 (stereo partly drawn)
(C) O=S1(=O)CC(CNc2nc(OCC34CCCN3CCC4)nc3c(F)c(-c4cccc5cccc(F)c45)ncc23)C1
Q: Order these compounds (above) by their IC50, from the smallest value upward. List the labels according to the requested ordering.
A: B, A, C
(B: 12 nM, A: 633 nM, C: 1700 nM)

----------
- subject of test: KRas G12D (Homo sapiens, UniProt P01116, G12D)
- Sequence (P01116 1-169 isoform P01116-2 G12D): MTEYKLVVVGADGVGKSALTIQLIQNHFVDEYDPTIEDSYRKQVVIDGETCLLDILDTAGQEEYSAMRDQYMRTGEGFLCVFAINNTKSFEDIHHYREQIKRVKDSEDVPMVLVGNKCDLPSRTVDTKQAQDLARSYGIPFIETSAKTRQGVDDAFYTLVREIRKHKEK
- measurement protocol: biochemical
pIC50: −log10 of the molar value.
metric name: pIC50

Previously resolved entries follow.
CCc1cccc2cccc(-c3ncc4c(N5CCCOCC5)nc(OCC56CCCN5CCC6)nc4c3F)c12: 5.83
Fc1c(-c2cccc3cccc(F)c23)ncc2c(N3CC(n4cncn4)C3)nc(OCC34CCCN3CCC4)nc12: 4.17
Nc1cc2n(n1)CCN(c1nc(OCC34CCCN3CCC4)nc3c(F)c(-c4cccc5cccc(F)c45)ncc13)C2: 4.17

(a) CCc1c(F)ccc2cc(O)cc(-c3ncc4c(N5CCCC(C(N)=O)C5)nc(OC[C@@]56CCCN5C[C@H](F)C6)nc4c3F)c12 (some centres unmarked)
(b) CCc1c(F)ccc2cc(O)cc(-c3ncc4c(NCc5n[nH]cc5C)nc(OC[C@@]56CCCN5C[C@H](F)C6)nc4c3F)c12
Q: Higher pIC50 between a and b ? Lab note: record the label of whichever item you select.
A: a

(A) C#Cc1cccc2cccc(-c3ncc4c(N5CCCC(CS(N)(=O)=O)C5)nc(OCC56CCCN5CCC6)nc4c3F)c12 (centres unmarked)
(B) O=C1CC2CCN(c3nc(OCC45CCCN4CCC5)nc4c(F)c(-c5cccc6cccc(F)c56)ncc34)CC2C(=O)N1 (centres unmarked)
Q: Compare the recorded pIC50 of A and B ; state which is larger. Respond using the label that marks the chosen record.
A: A

(A) C[C@H]1C[C@@H](O)CN(c2nc(OCC34CCCN3CCC4)nc3c(F)c(-c4cccc5cccc(F)c45)ncc23)C1
(B) CN(Cc1c[nH]c2ncccc12)c1nc(OCC23CCCN2CCC3)nc2c(F)c(-c3cccc4cccc(F)c34)ncc12
(C) O=C1CC2(CCCN(c3nc(OCC45CCCN4CCC5)nc4c(F)c(-c5cccc6cccc(C(F)F)c56)ncc34)C2)N1 (centres unmarked)
(D) CCc1c(F)ccc2cc(O)cc(-c3ncc4c(NCc5ccc(=O)n(C)c5)nc(OC[C@@]56CCCN5C[C@H](F)C6)nc4c3F)c12
(E) O=C1CC2(CCCN(c3nc(OCC45CCCN4CCC5)nc4c(F)c(-c5cccc6cccc(Cl)c56)ncc34)C2)N1 (centres unmarked)
Q: Put the compounds in ascending order of pIC50. Please reply with the labels ordered as requested. Many thanks.
A: B, A, C, E, D

(1) Fc1c(-c2cccc3cccc(F)c23)ncc2c(N3CCCCCCC3)nc(OCC34CCCN3CCC4)nc12
(2) CCc1cccc2cccc(-c3ncc4c(N5CCCC6(CC(=O)N6)C5)nc(OCC56CCCN5CCC6)nc4c3F)c12 (centres unmarked)
Q: Sorting ascending by pIC50, which comes first: 1 or 2 ? Select an item and report its label.
A: 1

(I) CCc1c(F)ccc2cc(O)cc(-c3ncc4c(NCc5ccc(=O)[nH]c5)nc(OC[C@@]56CCCN5C[C@H](F)C6)nc4c3F)c12
(II) O=C1CC2(CCCN(c3nc(OCC45CCCN4CCC5)nc4c(F)c(-c5cccc6cccc(C(F)(F)F)c56)ncc34)C2)N1 (centres unmarked)
Q: Between I and II , which one has the lower reported pIC50 value? Lab note: record the label of whichever item you select.
A: II
